Target: Recombinant human soluble guanylate cyclase (sGC) (Homo sapiens, UniProt Q02153)
Construct: histidine tag (C)
Sequence (Q02108 whole entry partner): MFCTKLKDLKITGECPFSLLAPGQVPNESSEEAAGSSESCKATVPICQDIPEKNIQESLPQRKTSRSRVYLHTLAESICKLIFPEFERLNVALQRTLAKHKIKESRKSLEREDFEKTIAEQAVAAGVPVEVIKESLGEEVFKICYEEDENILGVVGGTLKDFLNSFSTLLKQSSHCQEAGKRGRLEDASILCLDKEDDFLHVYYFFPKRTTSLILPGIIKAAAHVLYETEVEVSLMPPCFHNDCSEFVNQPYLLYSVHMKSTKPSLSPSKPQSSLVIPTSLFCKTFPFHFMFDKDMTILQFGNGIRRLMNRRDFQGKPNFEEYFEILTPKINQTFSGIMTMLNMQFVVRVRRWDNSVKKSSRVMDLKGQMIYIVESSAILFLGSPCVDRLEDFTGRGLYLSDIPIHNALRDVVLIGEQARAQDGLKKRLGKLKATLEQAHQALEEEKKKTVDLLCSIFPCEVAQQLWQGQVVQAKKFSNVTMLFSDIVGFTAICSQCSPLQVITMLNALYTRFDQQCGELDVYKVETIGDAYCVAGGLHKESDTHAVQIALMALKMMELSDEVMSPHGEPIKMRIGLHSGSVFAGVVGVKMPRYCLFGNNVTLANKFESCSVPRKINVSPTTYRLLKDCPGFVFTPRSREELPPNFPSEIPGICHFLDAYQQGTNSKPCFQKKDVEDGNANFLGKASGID
Sequence (Q02153 whole entry): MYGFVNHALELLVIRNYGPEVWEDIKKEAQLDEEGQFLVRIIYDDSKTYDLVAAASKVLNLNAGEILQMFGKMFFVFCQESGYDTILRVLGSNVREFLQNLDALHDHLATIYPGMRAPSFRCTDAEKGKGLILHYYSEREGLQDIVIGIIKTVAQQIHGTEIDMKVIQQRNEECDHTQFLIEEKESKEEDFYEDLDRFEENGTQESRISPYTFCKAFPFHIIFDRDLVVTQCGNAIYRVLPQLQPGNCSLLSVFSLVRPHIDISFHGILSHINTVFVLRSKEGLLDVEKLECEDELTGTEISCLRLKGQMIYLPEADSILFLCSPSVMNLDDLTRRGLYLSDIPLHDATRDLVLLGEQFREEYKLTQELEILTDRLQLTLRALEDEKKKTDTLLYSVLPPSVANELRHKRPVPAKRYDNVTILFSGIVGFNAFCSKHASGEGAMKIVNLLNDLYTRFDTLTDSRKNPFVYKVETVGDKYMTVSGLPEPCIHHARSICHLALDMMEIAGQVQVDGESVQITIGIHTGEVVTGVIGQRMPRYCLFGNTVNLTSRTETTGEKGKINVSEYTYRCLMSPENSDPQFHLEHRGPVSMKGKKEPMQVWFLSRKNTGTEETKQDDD
Experiment: Molecular assay: activation of heme-free sGC, cGMP detection (CisBio kit)
Settings: 300 pM heme-free sGC, 37° C., 60 minutes, cGMP formation
endpoint_name: EC50 (µM)
Provide the reading as a plain figure in µM.

Consider the compound Cc1ccc(OCc2ccc3c(c2)CCN(C2CCCOC2)C3)c(-c2cccc(-n3ncc(C(=O)O)c3C(F)(F)F)n2)c1 (centres unmarked) and give its measured EC50.
0.001

Next:
Consider the compound Cc1ccc(OCc2ccc3c(c2C)CCN(C2CCOC2)C3)c(-c2cccc(-c3ncc(C(=O)O)n3C)n2)c1 (centres unmarked) and give its measured EC50.
0.165

Consider the compound Cc1ccc(OCc2ccc3c(c2)CCN(CCc2ccccc2)C3)c(-c2cccc(-n3ncc(C(=O)O)c3C(F)(F)F)n2)c1 and give its measured EC50.
0.004

Consider the compound Cc1ccc(OCc2ccc3c(c2)CCN(C)CC3)c(-c2cccc(-n3ncc(C(=O)O)c3C(F)(F)F)n2)c1 and give its measured EC50.
0.032

Consider the compound Cc1cccc(-c2cccc(-c3c(C)c(C(=O)O)nn3C(C)(C)C)n2)c1OCc1ccc2c(c1)CCN(C1CCOCC1)C2 and give its measured EC50.
0.069

Consider the compound CCn1cc(CN2CCc3cc(COc4ccc(C)cc4-c4cccc(-n5ncc(C(=O)O)c5C(F)(F)F)n4)ccc3C2)cn1 and give its measured EC50.
0.012

Consider the compound Cc1ccc(OCc2ccc3c(c2)CCN(CCC2CCOCC2)C3)c(-c2cccc(-n3ncc(C(=O)O)c3C(F)(F)F)n2)c1 and give its measured EC50.
0.019

Consider the compound Cc1ccc(OCc2ccc3c(c2)CCN(C)C3)c(-c2cccc(-c3csc(C(=O)O)c3C)n2)c1 and give its measured EC50.
2

Consider the compound Cc1ccc(OCc2ccc3c(c2C)CCN(C2CCOC2)C3)c(-c2cccc(-c3csc(C(=O)O)c3C)n2)c1 (centres unmarked) and give its measured EC50.
0.047

Consider the compound Cc1cccc(-c2cccc(-c3c(C)c(C(=O)O)nn3CC(F)(F)F)n2)c1OCc1ccc2c(c1)CCN(C1CCOCC1)C2 and give its measured EC50.
0.18

Consider the compound Cc1ccc(OCc2ccc3c(c2)N(C)CCC3)c(-c2cccc(-n3ncc(C(=O)O)c3C(F)(F)F)n2)c1 and give its measured EC50.
0.079

Consider the compound Cc1csc(CN2CCc3cc(COc4c(C)cccc4-c4cccc(-c5ncc(C(=O)O)n5C)n4)ccc3C2)n1 and give its measured EC50.
0.008

Consider the compound Cc1cccc(-c2cccc(-c3csc(C(=O)O)c3C)n2)c1OCc1ccc2c(c1)CCN(C1CCOCC1)C2 and give its measured EC50.
0.019

Consider the compound Cc1ccc(OCc2ccc3c(c2)CCN(Cc2nc(C)cs2)C3)c(-c2cccc(-c3csc(C(=O)O)c3C)n2)c1 and give its measured EC50.
0.38

====

Entries annotated with measured pEC50
Target: Recombinant human soluble guanylate cyclase (sGC) (Homo sapiens, UniProt Q02153)
Construct: histidine tag (C)
Test: Molecular assay: activation of heme-free sGC, cGMP detection (CisBio kit)
Settings: 300 pM heme-free sGC, 37° C., 60 minutes, cGMP formation
Scale explanation: pEC50 corresponds to minus log10 of a concentration expressed in moles per litre.

Reference set (3 entries):
Consider the compound Cc1ccc(OCc2ccc3c(c2)CCN(Cc2nc(C)cs2)C3)c(-c2cccc(-n3ncc(C(=O)O)c3C(F)(F)F)n2)c1 [Compound 29] and give its measured pEC50.
9.30

Consider the compound Cc1cccc(-c2cccc(-c3c(C)c(C(=O)O)nn3C)n2)c1OCc1ccc2c(c1)CCN(C1CCOCC1)C2 [Compound 81] and give its measured pEC50.
6.73

Consider the compound Cc1ccc(OCc2ccc3c(c2)CCN(C)C3)c(-c2cccc(-n3ncc(C(=O)O)c3C(F)(F)F)n2)c1 [Compound 2] and give its measured pEC50.
7.34

For the next question, use this compound.
Consider the compound Cc1ccc(OCc2ccc3c(c2)nnn3C)c(-c2cccc(-n3ncc(C(=O)O)c3C(F)(F)F)n2)c1 [Compound 10] and give its measured pEC50.
6.55

====

Biological target: Recombinant human soluble guanylate cyclase (sGC) (Homo sapiens, UniProt Q02153)
Construct: histidine tag (C)
Experiment: Molecular assay: activation of heme-free sGC, cGMP detection (CisBio kit)
Conditions: 300 pM heme-free sGC, 37° C., 60 minutes, cGMP formation
endpoint_name: pEC50
Scale explanation: pEC50 corresponds to minus log10 of a concentration expressed in moles per litre.

Consider the compound Cc1ccc(OCc2ccc3c(c2)CCN(C2CCOCC2)C3)c(-c2cccc(-c3ncc(C(=O)O)n3C)n2)c1 [Compound 66] and give its measured pEC50.
5.74

Consider the compound Cc1cc(CN2CCc3cc(COc4c(C)cccc4-c4cccc(-c5ncc(C(=O)O)n5C)n4)ccc3C2)no1 [Compound 72] and give its measured pEC50.
7.57

Consider the compound Cc1cccc(-c2cccc(-c3c(C)c(C(=O)O)nn3C3CCOCC3)n2)c1OCc1ccc2c(c1)CCN(C1CCOCC1)C2 [Compound 89] and give its measured pEC50.
6.15

Next:
Consider the compound Cc1cccc(-c2cccc(-c3ncc(C(=O)O)n3C)n2)c1OCc1ccc2c(c1)CCN(CC1CCCOC1)C2 (stereo not shown) [Compound 73] and give its measured pEC50.
7.33

Consider the compound Cc1ccc(OCc2ccc3c(c2)CCN(C)C3)c(-c2cccc(-n3ncc(C(=O)O)c3C)n2)c1 [Compound 43] and give its measured pEC50.
5.77

Consider the compound Cc1cccc(-c2cccc(-c3nc(C)c(C(=O)O)s3)n2)c1OCc1ccc2c(c1)CCN(C1CCOCC1)C2 [Compound 59] and give its measured pEC50.
5.38

Consider the compound Cc1ccc(OCc2ccc3c(c2)CCN(C2CC2)C3)c(-c2cccc(-n3ncc(C(=O)O)c3C(F)(F)F)n2)c1 [Compound 12] and give its measured pEC50.
7.72

====

Entries annotated with measured solubility kinetic
Assay: Assessment of solubility (HT solubility, pION, UV)
Format: physicochemical
Settings: pH 4.5 buffer (pION system solution), pH 4.5, aqueous buffer, kinetic from dmso stock, pH 4.5 buffer, incubated 16-19 hours, 1.0% DMSO, 100 uM; read-out: Sol pH 4.5
Procedure: Solubility is measured by the following method. DMSO stock samples at 10 mM conc are prepared. […] The samples are pierced and 100 ul of thawed samples are transferred into the PCR plate for analysis. […] 75 ul of buffer (pH 7.4 or pH 4.5) is added to UV plate followed by addition of […] of N-propanol. The solution is mixed and the blank spectrum is read using spectrophotometer. […] The spectra collected for blank, reference and sample from 250-498 nm is analyzed using pION software. […]
Provide the reading as a plain figure in µg/mL.

Reference set (3 entries):
Consider the compound CCn1cc(CN2CCc3cc(COc4ccc(C)cc4-c4cccc(-n5ncc(C(=O)O)c5C(F)(F)F)n4)ccc3C2)cn1 [Compound 32] and give its measured solubility kinetic.
10.8

Consider the compound Cc1cccc(-c2cccc(-c3c(C)c(C(=O)O)nn3C)n2)c1OCc1ccc2c(c1)CCN(C1CCOCC1)C2 [Compound 81] and give its measured solubility kinetic.
48.4

Consider the compound Cc1ccc(OCc2ccc3c(c2)CCN(Cc2cnccn2)C3)c(-c2cccc(-n3ncc(C(=O)O)c3C(F)(F)F)n2)c1 [Compound 24] and give its measured solubility kinetic.
40

Next:
Consider the compound Cc1ccc(OCc2ccc3snnc3c2)c(-c2cccc(-n3ncc(C(=O)O)c3C(F)(F)F)n2)c1 [Compound 7] and give its measured solubility kinetic.
2.1

Consider the compound Cc1cccc(-c2cccc(-c3c(C)c(C(=O)O)nn3CC(F)(F)F)n2)c1OCc1ccc2c(c1)CCN(C1CCOCC1)C2 [Compound 87] and give its measured solubility kinetic.
17.3

Consider the compound Cc1ccc(OCc2ccc3c(c2)CCN(CC2CCOC2)C3)c(-c2cccc(-c3csc(C(=O)O)c3C)n2)c1 (centres unmarked) [Compound 51] and give its measured solubility kinetic.
44.7

Consider the compound Cc1ccc(OCc2ccc3c(c2)CCN(Cc2ccccc2)C3)c(-c2cccc(-n3ncc(C(=O)O)c3C(F)(F)F)n2)c1 [Compound 27] and give its measured solubility kinetic.
18.2

Consider the compound Cc1ccc(OCc2ccc3c(c2)CCN(C)C3)c(-c2cccc(-n3ncc(C(=O)O)c3C(F)(F)F)n2)c1 [Compound 2] and give its measured solubility kinetic.
6.5

====

Entries annotated with measured solubility kinetic
Assay: Assessment of solubility (HT solubility, pION, UV)
Assay type: physicochemical
Details: pH 4.5 buffer (pION system solution), pH 4.5, aqueous buffer, kinetic from dmso stock, pH 4.5 buffer, incubated 16-19 hours, 1.0% DMSO, 100 uM; read-out: Sol pH 4.5
Description: Solubility is measured by the following method. DMSO stock samples at 10 mM conc are prepared. […] The samples are pierced and 100 ul of thawed samples are transferred into the PCR plate for analysis. […] 75 ul of buffer (pH 7.4 or pH 4.5) is added to UV plate followed by addition of […] of N-propanol. The solution is mixed and the blank spectrum is read using spectrophotometer. […] The spectra collected for blank, reference and sample from 250-498 nm is analyzed using pION software. […]

Reference set (3 entries):
Consider the molecule Cc1ccc(OCc2ccc3c(c2)CCN(C2CCOCC2)C3)c(-c2cccc(-c3ncc(C(=O)O)n3C)n2)c1 [Compound 66] and give its measured solubility kinetic.
> 53 µg/mL

Consider the molecule Cc1cccc(-c2cccc(-n3ncc(C(=O)O)c3C)n2)c1OCc1ccc2c(c1)CCN(C1CCOCC1)C2 [Compound 64] and give its measured solubility kinetic.
> 78 µg/mL

Consider the molecule Cc1cccc(-c2cccc(-c3ncc(C(=O)O)n3C)n2)c1OCc1ccc2c(c1)CCN(C1CCCCCC1)C2 [Compound 76] and give its measured solubility kinetic.
> 66 µg/mL

Next:
Consider the molecule Cc1ccc(OCc2ccc3c(c2)CCNC3)c(-c2cccc(-n3ncc(C(=O)O)c3C(F)(F)F)n2)c1 [Compound 4] and give its measured solubility kinetic.
17.6 µg/mL

Consider the molecule Cc1ccc(OCc2ccc3c(c2)CCN(C)CC3)c(-c2cccc(-n3ncc(C(=O)O)c3C(F)(F)F)n2)c1 [Compound 40] and give its measured solubility kinetic.
16.3 µg/mL

Consider the molecule Cc1ccc(OCc2ccc3c(c2)CCN(CCC2CCOCC2)C3)c(-c2cccc(-n3ncc(C(=O)O)c3C(F)(F)F)n2)c1 [Compound 25] and give its measured solubility kinetic.
> 62 µg/mL

Consider the molecule CCn1cc(CN2CCc3cc(COc4c(C)cccc4-c4cccc(-c5ncc(C(=O)O)n5C)n4)ccc3C2)cn1 [Compound 71] and give its measured solubility kinetic.
> 67 µg/mL
